The origin of these recorded values is patent US20230108408A1.

biological target: AhR (Homo sapiens, UniProt P35869); construct: The HepG2 CYP1A1-Luc cells do express basal luciferase activity that can be increased via potent AhR agonists or decreased via potent AhR antagonists; endogenous in cells; experiment: AhR Direct Luciferase Reporter Assay in HepG2 Cells; settings: AhR antagonistic potency; HepG2 CYP1A1-Luc cells, 18 hours, no exogenous AhR agonist or 10 nM VAF347

[
  {
    "sampleSmiles": "N#Cc1ccc(C(F)(F)F)c(-c2cc3ccc(NC(=O)C(=O)NCc4ccccc4)nc3[nH]2)c1",
    "IC50": "0.1 to 1 µM"
  },
  {
    "sampleSmiles": "N#Cc1ccc(C(F)(F)F)c(-c2cc3ccc(NC(=O)C(=O)N4CCC4)nc3[nH]2)c1",
    "IC50": "0.1 to 1 µM"
  },
  {
    "sampleSmiles": "COCCN(C)C(=O)C(=O)Nc1ccc2cc(-c3cc(C#N)ccc3C(F)(F)F)[nH]c2n1",
    "IC50": "0.1 to 1 µM"
  },
  {
    "sampleSmiles": "CN1CCN(C(=O)C(=O)Nc2ccc3cc(-c4cc(C#N)ccc4C(F)(F)F)[nH]c3n2)CC1",
    "IC50": "> 1 µM"
  }
]

* * *

# pIC50 annotations
Target: AhR (Homo sapiens, UniProt P35869)
Construct: The HepG2 CYP1A1-Luc cells do express basal luciferase activity that can be increased via potent AhR agonists or decreased via potent AhR antagonists; endogenous in cells
Sequence (P35869 11-848): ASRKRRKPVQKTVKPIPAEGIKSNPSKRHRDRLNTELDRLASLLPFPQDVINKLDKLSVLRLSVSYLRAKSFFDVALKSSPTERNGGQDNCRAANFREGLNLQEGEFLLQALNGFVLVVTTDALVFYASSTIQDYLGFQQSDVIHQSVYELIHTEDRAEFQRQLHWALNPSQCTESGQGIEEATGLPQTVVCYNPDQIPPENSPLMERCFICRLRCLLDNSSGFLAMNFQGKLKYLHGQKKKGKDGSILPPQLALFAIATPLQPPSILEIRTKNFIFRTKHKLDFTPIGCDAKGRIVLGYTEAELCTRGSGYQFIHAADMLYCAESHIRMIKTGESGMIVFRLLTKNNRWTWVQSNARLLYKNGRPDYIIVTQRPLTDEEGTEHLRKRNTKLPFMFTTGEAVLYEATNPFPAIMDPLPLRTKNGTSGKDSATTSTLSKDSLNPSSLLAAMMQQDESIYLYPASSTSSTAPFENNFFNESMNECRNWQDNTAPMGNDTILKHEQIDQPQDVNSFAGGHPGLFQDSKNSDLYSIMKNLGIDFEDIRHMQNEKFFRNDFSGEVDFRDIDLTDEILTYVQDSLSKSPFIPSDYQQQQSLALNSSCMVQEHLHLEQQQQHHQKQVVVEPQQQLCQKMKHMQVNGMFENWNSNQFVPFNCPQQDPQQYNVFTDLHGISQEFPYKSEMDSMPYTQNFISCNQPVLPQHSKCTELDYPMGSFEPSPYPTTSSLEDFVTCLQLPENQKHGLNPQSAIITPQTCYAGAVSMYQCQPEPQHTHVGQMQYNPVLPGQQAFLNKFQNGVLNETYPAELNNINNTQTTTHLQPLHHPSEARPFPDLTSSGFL
Assay: AhR Direct Luciferase Reporter Assay in HepG2 Cells
Assay type: cell-based
Details: AhR antagonistic potency; HepG2 CYP1A1-Luc cells, 18 hours, no exogenous AhR agonist or 10 nM VAF347
pIC50: −log10 of the molar value.
readoutLabel: pIC50

[
  {
    "compound": "CC1(O)CN(C(=O)C(=O)Nc2ccc3cc(-c4cc(C#N)ccc4C(F)(F)F)[nH]c3n2)C1",
    "targetEntity": "AhR (Homo sapiens, UniProt P35869)",
    "recordedValue": "6.00 to 7.00"
  },
  {
    "compound": "CC1CCN1C(=O)C(=O)Nc1ccc2cc(-c3cc(C#N)ccc3C(F)(F)F)[nH]c2n1 (stereo not drawn)",
    "targetEntity": "AhR (Homo sapiens, UniProt P35869)",
    "recordedValue": "> 7.00"
  },
  {
    "compound": "N#Cc1ccc(C(F)(F)F)c(-c2cc3ccc(NC(=O)C(=O)N4CCCC4)nc3[nH]2)c1",
    "targetEntity": "AhR (Homo sapiens, UniProt P35869)",
    "recordedValue": "> 7.00"
  },
  {
    "compound": "N#Cc1ccc(C(F)(F)F)c(-c2cc3ccc(NC(=O)C(=O)N4CCC5(CC5)C4)nc3[nH]2)c1",
    "targetEntity": "AhR (Homo sapiens, UniProt P35869)",
    "recordedValue": "> 7.00"
  },
  {
    "compound": "N#Cc1ccc(C(F)(F)F)c(-c2cc3ccc(NC(=O)C(=O)N4CCOCC4)nc3[nH]2)c1",
    "targetEntity": "AhR (Homo sapiens, UniProt P35869)",
    "recordedValue": "6.00 to 7.00"
  },
  {
    "compound": "CN(CC(F)(F)F)C(=O)C(=O)Nc1ccc2cc(-c3cc(C#N)ccc3C(F)(F)F)[nH]c2n1",
    "targetEntity": "AhR (Homo sapiens, UniProt P35869)",
    "recordedValue": "> 7.00"
  }
]
